B1: HDAC6 (parent)
chain: DLMETTQYMNEGELRVLADTYDSV

variants of: B1; experiment: protein stability index of a GFP-peptide fusion (GPS, HEK-293T) (PSI 1-6); higher = more stable; conditions: c terminus: a fixed tail appended;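 note: lentivirally expressed fusions sorted by FACS into six bins by GFP to DsRed ratio, PSI derived from sequencing read proportions per bin multiplied by bin number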
VALUE TYPE: protein stability index
Lab note: jot the number down without any unit.

>>> reported_value("E13F")
2.66
>>> reported_value("S23Y")
1.58
>>> reported_value("G12P")
4.74
>>> reported_value("D19R")
2.56
>>> reported_value("V16P")
4.81
>>> reported_value("Q7V")
1.67
>>> reported_value("Y21P")
2.04
>>> reported_value("M3T")
3.15

Next:
[Q] Request the reported protein stability index associated with `M3S`
[A] 3.48
